Data provenance: patent US6201025A

SYSTEM_UNDER_TEST: human neuropeptide Y5 receptor (Homo sapiens)
Construct: expressed in transfected cells; cell membranes
Sequence (Q15761 1-445): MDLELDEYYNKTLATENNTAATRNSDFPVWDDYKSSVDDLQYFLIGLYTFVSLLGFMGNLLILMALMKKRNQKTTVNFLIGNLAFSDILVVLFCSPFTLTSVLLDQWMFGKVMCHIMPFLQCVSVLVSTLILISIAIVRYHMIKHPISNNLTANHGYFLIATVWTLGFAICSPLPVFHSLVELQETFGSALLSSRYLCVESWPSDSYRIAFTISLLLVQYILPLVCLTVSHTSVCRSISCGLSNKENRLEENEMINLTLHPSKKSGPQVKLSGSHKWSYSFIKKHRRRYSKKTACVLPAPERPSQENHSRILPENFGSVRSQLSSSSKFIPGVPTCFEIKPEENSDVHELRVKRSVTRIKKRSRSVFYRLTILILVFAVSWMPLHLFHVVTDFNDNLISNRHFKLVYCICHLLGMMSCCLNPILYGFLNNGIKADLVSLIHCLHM
EXPERIMENTAL_DETAILS: NPY5 HTS Centrifugation Assay: competition of 125I-PYY binding to membranes of NPY5-transfected HEK293 cells
SETTINGS: 30 uM; 80 pM 125I-PYY; human NPY Y5 receptor; 1 hr room temperature; read-out: % Inhibition of 125I-PYY Binding @ 30 uM
The following compounds are listed with their measured inhibition at 30 µM values.
Provide the reading as a plain figure in %.

Q. Could you tell me which inhibition at 30 µM is on file for COc1ccc2c(c1)[C@H](Cc1ccccc1)[C@H](NCCc1c[nH]c3ccccc13)CC2 (relative stereo) [Compound 18, hydrate] ?
A. 104

Q. Could you tell me which inhibition at 30 µM is on file for COc1ccc(CCN[C@@H]2CCc3cc(OC)ccc3[C@@H]2Cc2ccccc2)cc1 (relative stereo) ?
A. 99

Q. Could you tell me which inhibition at 30 µM is on file for c1ccc2c(c1)CC[C@@H](NCCc1c[nH]c3ccccc13)[C@H]2Cc1ccc2ccccc2c1 (relative stereo) ?
A. 99

Q. Could you tell me which inhibition at 30 µM is on file for COc1ccc2c(c1)CC[C@H](NCCc1ccc(OC)c(OC)c1)[C@@H]2Cc1ccccc1 (racemic) ?
A. 101

Q. Could you tell me which inhibition at 30 µM is on file for COc1ccc2c(c1)CC[C@@H](NCCc1ccc(Oc3ccccc3)cc1)[C@H]2Cc1ccccc1 (relative stereo) ?
A. 87

----------
The following compounds are listed with their measured inhibition at 30 µM values.
SYSTEM_UNDER_TEST: human neuropeptide Y5 receptor (Homo sapiens, UniProt Q15761)
Construct: expressed in transfected cells; cell membranes
Sequence (Q15761 1-445): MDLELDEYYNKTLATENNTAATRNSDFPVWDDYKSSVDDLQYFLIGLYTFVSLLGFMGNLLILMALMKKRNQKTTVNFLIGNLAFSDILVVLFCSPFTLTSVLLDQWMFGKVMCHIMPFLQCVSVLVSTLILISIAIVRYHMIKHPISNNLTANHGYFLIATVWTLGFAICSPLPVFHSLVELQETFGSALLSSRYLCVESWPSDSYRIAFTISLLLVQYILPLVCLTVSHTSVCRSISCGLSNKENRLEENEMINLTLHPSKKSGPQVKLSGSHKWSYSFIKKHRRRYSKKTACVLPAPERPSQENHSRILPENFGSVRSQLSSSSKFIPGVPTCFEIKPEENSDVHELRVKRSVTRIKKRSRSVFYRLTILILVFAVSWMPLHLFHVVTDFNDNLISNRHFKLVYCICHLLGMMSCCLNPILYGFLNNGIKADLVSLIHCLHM
EXPERIMENTAL_DETAILS: NPY5 HTS Centrifugation Assay: competition of 125I-PYY binding to membranes of NPY5-transfected HEK293 cells
SETTINGS: 30 uM; 80 pM 125I-PYY; human NPY Y5 receptor; 1 hr room temperature; read-out: % Inhibition of 125I-PYY Binding @ 30 uM
Counter-ions that a name gives are not always drawn.

Q. Could you tell me which inhibition at 30 µM is on file for COc1ccccc1CN[C@H]1CCc2ccccc2[C@H]1Cc1ccccc1 (racemic) ?
A. 96%

Q. Could you tell me which inhibition at 30 µM is on file for COc1ccccc1C(=O)N[C@@H]1CCc2ccccc2[C@@H]1Cc1ccccc1 (relative stereo) [Compound 17, monohydrobromide] ?
A. 98%

----------
The following compounds are listed with their measured inhibition at 3 µM values.
SYSTEM_UNDER_TEST: human neuropeptide Y5 receptor (Homo sapiens, UniProt Q15761)
Construct: expressed in transfected cells; cell membranes
EXPERIMENTAL_DETAILS: NPY5 HTS Centrifugation Assay: competition of 125I-PYY binding to membranes of NPY5-transfected HEK293 cells
SETTINGS: 3 uM; 80 pM 125I-PYY; human NPY Y5 receptor; 1 hr room temperature; read-out: % Inhibition of 125I-PYY Binding @ 3 uM
Where a name gives a salt, the structure may show the parent alone.
Put down the number, then write its unit next to it.

> print(dat)
                                   compound  observed.measurement
1  COc1ccccc1CN[C@H]1CCc2ccccc2[C@H]1Cc1ccccc1 (racemic) [Compound 11]                   21%
2  c1ccc(C[C@H]2c3ccccc3CC[C@H]2NCCc2c[nH]c3ccccc23)cc1 (relative stereo) [Compound 8]                   73%

Q. Could you tell me which inhibition at 3 µM is on file for COc1ccc2c(c1)CC[C@@H](NCCc1ccc(Cl)c(Cl)c1)[C@H]2Cc1ccccc1 (relative stereo) [Compound 31] ?
A. 31%

Q. Could you tell me which inhibition at 3 µM is on file for COc1ccc2c(c1)CC[C@@H](NCCc1ccccc1)[C@H]2Cc1ccccc1 (relative stereo) [Compound 29] ?
A. 33%

Q. Could you tell me which inhibition at 3 µM is on file for COc1ccc2c(c1)[C@H](Cc1ccccc1)[C@H](NCCc1c[nH]c3ccccc13)CC2 (relative stereo) [Compound 18, hydrate] ?
A. 61%

Q. Could you tell me which inhibition at 3 µM is on file for COc1ccccc1C(=O)N[C@@H]1CCc2ccccc2[C@@H]1Cc1ccccc1 (relative stereo) [Compound 17, monohydrobromide] ?
A. 65%

Q. Could you tell me which inhibition at 3 µM is on file for COCCOc1ccc(CCN[C@H]2CCc3cc(OC)ccc3[C@H]2Cc2ccccc2)cc1 (relative stereo) [Compound 37] ?
A. 84%

Q. Could you tell me which inhibition at 3 µM is on file for COc1ccc2c(c1)[C@@H](Cc1ccccc1)[C@@H](NCc1ccccc1OC)CC2 (racemic) [Compound 15, monohydrobromide] ?
A. 31%

Q. Could you tell me which inhibition at 3 µM is on file for c1ccc2c(c1)CC[C@@H](NCCc1c[nH]c3ccccc13)[C@H]2Cc1ccc2ccccc2c1 (relative stereo) [Compound 20] ?
A. 27%

----------
SYSTEM_UNDER_TEST: human neuropeptide Y5 receptor (Homo sapiens, UniProt Q15761)
Construct: expressed in transfected cells; cell membranes
EXPERIMENTAL_DETAILS: NPY5 HTS Centrifugation Assay: competition of 125I-PYY binding to membranes of NPY5-transfected HEK293 cells
SETTINGS: 30 uM; 80 pM 125I-PYY; human NPY Y5 receptor; 1 hr room temperature; read-out: % Inhibition of 125I-PYY Binding @ 30 uM
Structures can show the parent of a compound that is named as a salt.
The following compounds are listed with their measured inhibition at 30 µM values.

> print(dat)
                                   compound  observed.measurement
1  c1ccc(C[C@H]2c3ccccc3CC[C@H]2NCCc2c[nH]c3ccccc23)cc1 (relative stereo) [Compound 8]                  105%
2  Fc1ccc(C[C@@H]2c3ccccc3CC[C@@H]2NCCCc2ccccc2)cc1 (racemic) [Compound 24, monohydrobromide]                  102%
3  COc1ccc(CCN[C@@H]2CCc3ccccc3[C@@H]2Cc2ccccc2)cc1OC (relative stereo) [Compound 35]                   99%
4  Fc1ccc(CN[C@H]2CCc3ccccc3[C@H]2Cc2ccccc2)cc1 (racemic) [Compound 9, monohydrobromide]                   97%

Q. Could you tell me which inhibition at 30 µM is on file for COc1ccc(C[C@H]2c3ccc(OC)cc3CC[C@H]2NCCc2ccc(OC)c(OC)c2)cc1 (relative stereo) [Compound 34] ?
A. 103%

Q. Could you tell me which inhibition at 30 µM is on file for COc1ccc2c(c1)CC[C@@H](NCCc1ccccc1)[C@H]2Cc1ccccc1 (relative stereo) [Compound 29] ?
A. 95%

----------
The following compounds are listed with their measured inhibition at 30 µM values.
SYSTEM_UNDER_TEST: human neuropeptide Y5 receptor (Homo sapiens)
Construct: expressed in transfected cells; cell membranes
EXPERIMENTAL_DETAILS: NPY5 HTS Centrifugation Assay: competition of 125I-PYY binding to membranes of NPY5-transfected HEK293 cells
SETTINGS: 30 uM; 80 pM 125I-PYY; human NPY Y5 receptor; 1 hr room temperature; read-out: % Inhibition of 125I-PYY Binding @ 30 uM
Where a name gives a salt, the structure may show the parent alone.
Provide the reading as a plain figure in %.

Guide cases for inhibition at 30 µM, answers given:
> print(dat)
                                   compound  units.of.measure  observed.measurement
1  COc1ccccc1CN[C@H]1CCc2ccccc2[C@H]1Cc1ccc(F)cc1 (racemic) [Compound 12, monohydrobromide]                 %                    98
2  COc1ccc2c(c1)CC[C@@H](NCCc1ccc(Cl)c(Cl)c1)[C@H]2Cc1ccccc1 (relative stereo)                 %                    93
3  COc1cccc(C[C@H]2c3ccc(OC)cc3CC[C@H]2NCCc2ccc(OC)c(OC)c2)c1 (relative stereo)                 %                    97
4  COc1ccc(CCN[C@H]2CCc3ccccc3[C@H]2Cc2cccnc2)cc1OC (relative stereo) [Compound 28, monohydrobromide]                 %                    66

Q. Could you tell me which inhibition at 30 µM is on file for Fc1ccc(CCN[C@@H]2CCc3ccccc3[C@@H]2Cc2ccccc2)cc1 (relative stereo) [Compound 14, monohydrobromide] ?
A. 98
